# MEASUREMENT TARGET: CDK8/Cyclin C (Homo sapiens, UniProt P49336)
# Sequence (P49336 whole entry): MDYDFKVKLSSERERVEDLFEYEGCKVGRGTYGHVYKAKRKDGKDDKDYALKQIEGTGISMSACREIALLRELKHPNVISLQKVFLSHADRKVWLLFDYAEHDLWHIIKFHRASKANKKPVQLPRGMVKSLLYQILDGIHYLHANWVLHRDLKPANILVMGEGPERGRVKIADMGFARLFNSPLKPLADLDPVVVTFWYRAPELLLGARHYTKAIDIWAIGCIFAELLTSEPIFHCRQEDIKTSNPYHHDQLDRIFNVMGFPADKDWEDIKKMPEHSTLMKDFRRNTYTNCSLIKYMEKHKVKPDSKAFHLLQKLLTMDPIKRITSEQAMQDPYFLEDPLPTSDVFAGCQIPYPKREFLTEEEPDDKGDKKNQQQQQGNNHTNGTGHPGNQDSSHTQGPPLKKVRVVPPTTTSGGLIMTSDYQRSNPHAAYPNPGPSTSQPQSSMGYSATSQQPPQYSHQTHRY
# Sequence (P24863 whole entry partner): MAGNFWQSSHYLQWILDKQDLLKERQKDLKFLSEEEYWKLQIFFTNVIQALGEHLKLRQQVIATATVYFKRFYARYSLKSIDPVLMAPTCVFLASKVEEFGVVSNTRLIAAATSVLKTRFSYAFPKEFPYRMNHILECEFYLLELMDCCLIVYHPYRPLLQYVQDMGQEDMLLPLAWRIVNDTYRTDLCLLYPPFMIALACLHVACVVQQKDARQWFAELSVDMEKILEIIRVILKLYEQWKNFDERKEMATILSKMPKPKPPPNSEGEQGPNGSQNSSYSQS
# EXPERIMENTAL DETAILS: NanoBRET live-cell target engagement, NanoLuc-CDK8/Cyclin C in HEK-293
# Assay type: binding
# RUN PARAMETERS: CDK8/C; average
MEASURED PROPERTY: Inhibition at 10µM (%)
All answers are understood in %, so give the number only.

{"MOLECULE": "CC(C)c1c2cc(-c3ccnc(N[C@H]4CC[C@H](NC5CCOCC5)CC4)n3)ccc2nn1C", "Inhibition at 10µM (%)": 83.7}

Q: Consider the molecule CS(=O)(=O)N1CCC(NC(=O)c2[nH]ncc2NC(=O)c2c(Cl)cccc2Cl)CC1 . State its measured Inhibition at 10µM (%).
Result: 31.8

Q: Note Inhibition at 10µM (%) for the molecule shown: CNc1nc(C)c(-c2nc(Nc3cccc(S(N)(=O)=O)c3)ncc2F)s1
Result: 89.5

Q: Supply reported Inhibition at 10µM (%) belonging to this molecule: CC(C)c1cnn2c(NCc3ccccc3-n3cccn3)nc(OC3CCCNC3)nc12 (stereo not drawn)
Result: 3.8

Q: Determine from records and report Inhibition at 10µM (%) for CCn1cnc2c(Nc3cccc(Cl)c3)nc(N[C@@H]3CCCC[C@@H]3N)nc21 [CGP74514A]
Result: 3.2

Q: Item CN1CCC(c2c(O)cc(O)c3c(=O)cc(-c4ccccc4Cl)oc23)C1CO (stereo not drawn) : provide Inhibition at 10µM (%)
Result: 79.0

====

# MEASUREMENT TARGET: CDK5/CDK5R1 (Homo sapiens, UniProt Q00535)
# Sequence (Q00535 whole entry): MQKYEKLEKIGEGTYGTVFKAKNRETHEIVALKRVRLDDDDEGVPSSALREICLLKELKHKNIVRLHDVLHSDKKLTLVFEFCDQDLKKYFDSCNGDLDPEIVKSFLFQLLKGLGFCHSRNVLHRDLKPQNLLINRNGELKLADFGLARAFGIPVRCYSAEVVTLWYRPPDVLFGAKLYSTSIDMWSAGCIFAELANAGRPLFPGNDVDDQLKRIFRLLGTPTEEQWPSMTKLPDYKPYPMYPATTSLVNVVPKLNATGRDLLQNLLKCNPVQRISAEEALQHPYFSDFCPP
# Sequence (Q15078 whole entry partner): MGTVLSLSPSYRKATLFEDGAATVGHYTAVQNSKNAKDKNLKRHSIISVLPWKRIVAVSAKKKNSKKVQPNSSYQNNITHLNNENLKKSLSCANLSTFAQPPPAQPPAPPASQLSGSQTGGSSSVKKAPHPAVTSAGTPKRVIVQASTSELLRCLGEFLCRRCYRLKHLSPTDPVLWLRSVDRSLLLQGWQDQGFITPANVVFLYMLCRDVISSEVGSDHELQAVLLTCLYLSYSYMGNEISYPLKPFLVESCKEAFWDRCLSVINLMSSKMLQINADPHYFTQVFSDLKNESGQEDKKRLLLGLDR
# EXPERIMENTAL DETAILS: NanoBRET live-cell target engagement, CDK5-NanoLuc/CDK5R1 in HEK-293
# Type: binding
# RUN PARAMETERS: CDK5/CDK5R1; average; read-out: Inhibition at 10µM (%)
Each entry below carries its recorded inhibition at 10 µM.
Supply the numeric figure in %, leaving out any unit text.

{"COMPOUND": "CC(C)N1CCN(c2ccc(Nc3ncc4cc5n(c4n3)C3(CCCCC3)CNC5=O)nc2)CC1", "inhibition at 10 µM (%)": 12.2}
{"COMPOUND": "COC1CN(C(=O)c2ccc3c(N)ncc(-c4ccc(-c5cnn(C)c5)cc4)c3n2)C1", "inhibition at 10 µM (%)": 16.2}
{"COMPOUND": "CN1CC[C@H](c2c(O)cc(O)c3c(=O)cc(-c4ccccc4Cl)oc23)[C@H](O)C1", "inhibition at 10 µM (%)": 83.1}

Q: State, in one line, measured inhibition at 10 µM of CNC(=O)c1nn(C)c2c1C(C)(C)Cc1cnc(Nc3ccc(N4CCN(C)CC4)cc3)nc1-2
Result: 82.1

Q: Complete the entry with inhibition at 10 µM for COc1ccc(F)cc1-c1cc(NC(=O)C2CCCNC2)ncc1Cl (centres unmarked)
Result: 40

Q: Read off the recorded inhibition at 10 µM for CN1CCN(Cc2ccc(NC(=O)Nc3ccc(Oc4ccnc(N)n4)cc3)cc2C(F)(F)F)CC1
Result: 23.7

Q: Report inhibition at 10 µM, nothing else, for this compound: CN1CCN(c2ccc(Nc3ncc4cc(C#N)c(=O)n(C5CCCC5)c4n3)cc2)CC1
Result: 4.3

Q: Name the recorded inhibition at 10 µM of the item Cn1cc(-c2ccc(-c3cncc(Cl)c3N3CCC4(CCNC4=O)CC3)cc2)cn1 in your answer.
Result: 16.2
